Tested on: HT-1080 cells expressing IDH1R132C
Assay: 2-HG production inhibitory activity using HT1080 cell
Format: cell-based, human
Settings: Homo sapiens, HT-1080; 2-HG production, HT1080 cells; read-out: Test Example 3 IC50
measure.name: IC50 (nM)

>  <molecule>
C=CC(=O)N1CCC(c2onc(-c3c(C)cc(C)cc3C)c2C(=O)n2cc(C)c3c(/C=C/C(=O)O)cccc32)CC1 [Example 114]

>  <recorded.result>
3

$$$$
>  <molecule>
C=CC(=O)N1CCC(C)(c2onc(-c3c(Cl)cc(Cl)cc3Cl)c2C(=O)n2cc(C)c3c(/C=C/C(=O)O)cccc32)CC1 [Example 113]

>  <recorded.result>
2

$$$$
>  <molecule>
Cc1cn(C(=O)c2c(-c3cc(F)c(Cl)cc3Cl)noc2C(C)(C)F)c2cccc(/C=C/C(=O)O)c12 [Example 63]

>  <recorded.result>
193

$$$$
>  <molecule>
CC(C)(F)c1onc(-c2c(Cl)cc(Cl)cc2Cl)c1C(=O)n1cc(F)c2c(/C=C/C(=O)O)cccc21 [Example 45]

>  <recorded.result>
60

$$$$
>  <molecule>
Cc1cn(C(=O)c2c(-c3c(F)cc(Cl)cc3Cl)noc2C(C)(C)F)c2cccc(/C=C/C(=O)O)c12 [Example 47]

>  <recorded.result>
62

$$$$

[I] CC(C)(F)c1onc(-c2c(Cl)cc(Cl)cc2Cl)c1C(=O)n1cc2c3c(cccc31)/C(=C/C(=O)O)CC2 [Example 13]
[II] Cc1cn(C(=O)c2c(-c3ccc(Cl)c(F)c3Cl)noc2C(C)(C)F)c2cccc(/C=C/C(=O)O)c12 [Example 17]
[III] Cc1cn(C(=O)c2c(-c3c(Cl)cc(Cl)cc3Cl)noc2C(C)(C)N(C)C)c2cccc(/C=C/C(=O)O)c12 [Example 91]
[IV] Cc1cn(C(=O)c2c(-c3c(Cl)cc(Cl)cc3Cl)noc2C(C)C)c2cccc(/C=C/C(=O)O)c12 [Example 29]
[V] CC1(c2onc(-c3c(Cl)cccc3Cl)c2C(=O)n2ccc3c(/C=C/C(=O)O)cccc32)COC1 [Example 75]
q: Please list these molecules in decreasing order of IC50. Return value: ordered labels per request.
a: II, V, IV, I, III
(II: 242 nM, V: 138 nM, IV: 94 nM, I: 51 nM, III: 23 nM)

* * *

System: HT-1080 cells expressing IDH1R132C
Test: 2-HG production inhibitory activity using HT1080 cell
Assay type: cell-based, human
Conditions: Homo sapiens, HT-1080; 2-HG production, HT1080 cells; read-out: Test Example 3 IC50
measure.name: IC50 (nM)

Some molecules with known IC50 results, for comparison:
>  <molecule>
C=CC(=O)N1CCN(c2onc(-c3c(Cl)cc(Cl)cc3Cl)c2C(=O)n2ccc3c(/C=C/C(=O)O)cccc32)C(C)C1 (stereo in doubt)

>  <unit.spec>
nM

>  <recorded.result>
104

$$$$
>  <molecule>
Cc1cn(C(=O)c2c(-c3c(Cl)cccc3Cl)noc2C(C)(C)F)c2cccc(/C=C/C(=O)O)c12

>  <unit.spec>
nM

>  <recorded.result>
146

$$$$
>  <molecule>
Cc1cn(C(=O)c2c(-c3c(Cl)cc(Cl)cc3Cl)noc2C2(C)CCC2)c2cccc(/C=C/C(=O)O)c12

>  <unit.spec>
nM

>  <recorded.result>
50

$$$$

[a] Cc1cc(Cl)c(-c2noc(C(C)(C)F)c2C(=O)n2cc(C)c3c(/C=C/C(=O)O)cccc32)c(Cl)c1
[b] COCC(C)(C)c1onc(-c2c(Cl)cc(Cl)cc2Cl)c1C(=O)n1ccc2c(/C=C/C(=O)O)cccc21
[c] CCc1cn(C(=O)c2c(-c3c(Cl)cc(Cl)cc3Cl)noc2C(C)(C)F)c2cccc(/C=C/C(=O)O)c12
[d] CC(C)(O)c1onc(-c2c(Cl)cccc2Cl)c1C(=O)n1ccc2c(/C=C/C(=O)O)cccc21
q: Ascending sort, IC50. Return value: ordered labels per request.
a: a, c, b, d
(a: 52 nM, c: 93 nM, b: 178 nM, d: 787 nM)

* * *

Molecular target: IDH1R132C (Homo sapiens (Human), UniProt O75874, R132C)
Sequence (O75874 whole entry R132C): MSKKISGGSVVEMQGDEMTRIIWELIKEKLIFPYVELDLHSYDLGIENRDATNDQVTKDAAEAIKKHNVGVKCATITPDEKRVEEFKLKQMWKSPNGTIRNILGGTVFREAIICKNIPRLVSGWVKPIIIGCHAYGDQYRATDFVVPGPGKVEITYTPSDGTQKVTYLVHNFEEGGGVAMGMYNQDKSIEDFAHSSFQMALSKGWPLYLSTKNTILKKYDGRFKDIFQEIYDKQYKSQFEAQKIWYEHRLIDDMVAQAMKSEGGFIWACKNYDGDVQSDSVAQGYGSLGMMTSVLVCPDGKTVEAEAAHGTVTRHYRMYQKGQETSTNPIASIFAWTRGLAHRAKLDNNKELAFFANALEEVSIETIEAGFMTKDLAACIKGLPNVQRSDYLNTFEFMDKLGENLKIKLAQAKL
Assay: Inhibitory activity against IDH1R132C enzyme (NADPH detection, WST-8)
Details: 10 nM, residual NADPH detected with WST-8, read-out: Test Example 1 IDH1 R132C IC50
measure.name: IC50 (nM)

>  <smiles.code>
CC(C)(F)c1onc(-c2ccc(Cl)cc2Cl)c1C(=O)n1cc2c3c(cccc31)/C(=C/C(=O)O)CC2

>  <IC50 / nM>
168

$$$$

[P] C=CC(=O)N1CCC(c2onc(-c3c(Cl)cc(Cl)cc3Cl)c2C(=O)c2cn(C)c3c(/C=C/C(=O)O)cccc23)CC1
[Q] CN(C)c1onc(-c2c(Cl)cccc2Cl)c1C(=O)n1ccc2c(/C=C/C(=O)O)cccc21
q: Input pair: P , Q . Output: entry with lower IC50. Indicate which entry you chose by stating its label.
a: Q

* * *

System: HT-1080 cells expressing IDH1R132C
Experiment: 2-HG production inhibitory activity using HT1080 cell
Assay type: cell-based, human
Settings: Homo sapiens, HT-1080; 2-HG production, HT1080 cells; read-out: Test Example 3 IC50
measure.name: IC50 (nM)

>  <molecule>
C=CC(=O)N1C[C@@H](C)N(c2onc(-c3c(Cl)cc(Cl)cc3Cl)c2C(=O)n2ccc3c(/C=C/C(=O)O)cccc32)C[C@H]1C [Example 152]

>  <recorded.result>
276

$$$$
>  <molecule>
Cc1cn(C(=O)c2c(-c3c(Cl)cc(F)cc3Cl)noc2C(C)(C)F)c2cccc(/C=C/C(=O)O)c12 [Example 49]

>  <recorded.result>
119

$$$$
>  <molecule>
C#CC(=O)N1CCC(c2onc(-c3c(Cl)cc(Cl)cc3Cl)c2C(=O)n2ccc3c(/C=C/C(=O)O)cccc32)CC1 [Example 100]

>  <recorded.result>
28

$$$$
>  <molecule>
COCC1(c2onc(-c3c(Cl)cc(Cl)cc3Cl)c2C(=O)n2cc(C)c3c(/C=C/C(=O)O)cccc32)CCC1 [Example 80]

>  <recorded.result>
99

$$$$
>  <molecule>
CN(C)c1onc(-c2c(Cl)cc(Cl)cc2Cl)c1C(=O)n1ccc2c(/C=C/C(=O)O)cccc21 [Example 138]

>  <recorded.result>
288

$$$$

[I] CC(C)(F)c1onc(-c2c(F)cc(Cl)cc2Cl)c1C(=O)n1cc2c3c(cccc31)/C(=C/C(=O)O)CC2 [Example 16]
[II] COc1cc(Cl)cc(Cl)c1-c1noc(C(C)(C)F)c1C(=O)n1cc(C)c2c(/C=C/C(=O)O)cccc21 [Example 58]
[III] CC(C)(F)c1onc(-c2c(F)cc(Cl)cc2Cl)c1C(=O)n1ccc2c(/C=C/C(=O)O)cccc21 [Example 46]
[IV] C=CC(=O)N1CCC(c2onc(-c3c(Cl)cc(Cl)cc3Cl)c2C(=O)n2ccc3c(/C=C/C(=O)O)cccc32)CC1 [Example 99]
q: Please list these molecules in decreasing order of IC50. Return value: ordered labels per request.
a: III, II, I, IV

* * *

Tested on: HT-1080 cells expressing IDH1R132C
Assay: 2-HG production inhibitory activity using HT1080 cell
Format: cell-based, human
Settings: Homo sapiens, HT-1080; 2-HG production, HT1080 cells; read-out: Test Example 3 IC50
pIC50: −log10 of the molar value.
measure.name: pIC50

Some compounds with known pIC50 results, for comparison:
>  <compound>
CC1(c2onc(-c3c(Cl)cc(Cl)cc3Cl)c2C(=O)n2ccc3c(/C=C/C(=O)O)cccc32)CC1

>  <recorded.result>
6.83

$$$$
>  <compound>
Cc1cc(Cl)cc(Cl)c1-c1noc(C(C)(C)F)c1C(=O)n1cc(C)c2c(/C=C/C(=O)O)cccc21

>  <recorded.result>
7.25

$$$$
>  <compound>
C=CC(=O)N1CCC(c2onc(-c3c(Cl)cccc3Cl)c2C(=O)n2cc(C)c3c(/C=C/C(=O)O)cccc32)CC1

>  <recorded.result>
7.42

$$$$

[I] C=CC(=O)N1CCN(c2onc(-c3c(Cl)cccc3Cl)c2C(=O)n2ccc3c(/C=C/C(=O)O)cccc32)C2(CC2)C1
[II] Cc1cn(C(=O)c2c(-c3c(Cl)cc(Br)cc3Cl)noc2C(C)(C)F)c2cccc(/C=C/C(=O)O)c12
q: Input pair: I , II . Output: entry with lower pIC50. Indicate which entry you chose by stating its label.
a: I
(I: 6.66, II: 7.49)

* * *

Biological target: IDH1R132C (Homo sapiens (Human), UniProt O75874, R132C)
Experiment: Inhibitory activity against IDH1R132C enzyme (NADPH detection, WST-8)
Settings: 10 nM, residual NADPH detected with WST-8, read-out: Test Example 1 IDH1 R132C IC50
measure.name: IC50 (nM)

>  <compound>
CC1(c2onc(-c3c(Cl)cc(Cl)cc3Cl)c2C(=O)n2ccc3c(/C=C/C(=O)O)cccc32)CC1 [Example 37]

>  <study.system>
IDH1R132C (Homo sapiens (Human), UniProt O75874, R132C)

>  <IC50 / nM>
117

$$$$
>  <compound>
Cc1cn(C(=O)c2c(-c3c(F)cccc3Cl)noc2C(C)(C)F)c2cccc(/C=C/C(=O)O)c12 [Example 52]

>  <study.system>
IDH1R132C (Homo sapiens (Human), UniProt O75874, R132C)

>  <IC50 / nM>
136

$$$$
>  <compound>
COc1cc(Cl)cc(Cl)c1-c1noc(C(C)(C)F)c1C(=O)n1cc(C)c2c(/C=C/C(=O)O)cccc21 [Example 58]

>  <study.system>
IDH1R132C (Homo sapiens (Human), UniProt O75874, R132C)

>  <IC50 / nM>
178

$$$$
>  <compound>
COC1(c2onc(-c3c(Cl)cc(Cl)cc3Cl)c2C(=O)n2cc3c4c(cccc42)/C(=C/C(=O)O)CC3)CCC1 [Example 12]

>  <study.system>
IDH1R132C (Homo sapiens (Human), UniProt O75874, R132C)

>  <IC50 / nM>
144

$$$$
>  <compound>
C=CC(=O)N1CCC(C)(c2onc(-c3c(Cl)cc(Cl)cc3Cl)c2C(=O)n2ccc3c(/C=C/C(=O)O)cccc32)CC1 [Example 111]

>  <study.system>
IDH1R132C (Homo sapiens (Human), UniProt O75874, R132C)

>  <IC50 / nM>
188

$$$$
>  <compound>
Cc1cn(C(=O)c2c(-c3c(Cl)cc(Cl)cc3Cl)noc2C2(C)CC2)c2cccc(/C=C/C(=O)O)c12 [Example 43]

>  <study.system>
IDH1R132C (Homo sapiens (Human), UniProt O75874, R132C)

>  <IC50 / nM>
139

$$$$
>  <compound>
Cc1cn(C(=O)c2c(-c3ccc(Cl)cc3Cl)noc2C(C)(C)F)c2cccc(/C=C/C(=O)O)c12 [Example 62]

>  <study.system>
IDH1R132C (Homo sapiens (Human), UniProt O75874, R132C)

>  <IC50 / nM>
155

$$$$
>  <compound>
C=CC(=O)N1CCC(c2onc(-c3c(Cl)cc(Cl)cc3Cl)c2C(=O)n2cc(C)c3c(/C=C/C(=O)O)cccc32)(N(C)C)CC1 [Example 126]

>  <study.system>
IDH1R132C (Homo sapiens (Human), UniProt O75874, R132C)

>  <IC50 / nM>
149

$$$$
>  <compound>
CC(C)(O)c1onc(-c2c(Cl)cccc2Cl)c1C(=O)n1ccc2c(/C=C/C(=O)O)cccc21 [Example 7]

>  <study.system>
IDH1R132C (Homo sapiens (Human), UniProt O75874, R132C)

>  <IC50 / nM>
152

$$$$
